- assayed_target: PKMYT1 enzyme (Homo sapiens, UniProt Q99640)
- Construct: purchased Thermo Scientific A33387
- Sequence (Q99640 whole entry): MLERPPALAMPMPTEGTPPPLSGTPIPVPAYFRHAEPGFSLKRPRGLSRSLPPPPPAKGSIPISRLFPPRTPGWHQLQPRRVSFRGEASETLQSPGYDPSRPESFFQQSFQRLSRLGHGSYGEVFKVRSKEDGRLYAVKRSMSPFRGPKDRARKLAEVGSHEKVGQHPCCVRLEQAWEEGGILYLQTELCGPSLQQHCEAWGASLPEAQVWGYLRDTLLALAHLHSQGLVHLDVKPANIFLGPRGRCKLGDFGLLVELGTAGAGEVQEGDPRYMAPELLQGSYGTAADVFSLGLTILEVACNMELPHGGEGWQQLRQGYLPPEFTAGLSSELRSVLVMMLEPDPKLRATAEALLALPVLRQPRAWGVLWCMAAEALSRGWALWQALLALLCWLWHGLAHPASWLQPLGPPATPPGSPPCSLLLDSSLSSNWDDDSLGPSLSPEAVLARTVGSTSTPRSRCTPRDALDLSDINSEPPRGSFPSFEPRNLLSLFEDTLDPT
- assay: PKMYT1 enzyme inhibition activity, ADP-GLO method
- Assay type: biochemical
- measurement_parameters: PKMYT1 enzyme 10 nM, ATP 5 µM, 37°C 90 minutes; read-out: ADP-GLO IC50
reported_property: IC50 (nM)

compound: Cc1ccc(O)c(C)c1-n1c(N)c(C(N)=O)c2cnc(N3CCCC3)nc21 [Example 35]
reported_property: IC50
val: 37.8
--
compound: C=C(C)c1nc2c(cc1C)c(C(N)=O)c(N)n2-c1c(C)cc(F)c(O)c1C [Example 152]
reported_property: IC50
val: 47.9
--
compound: Cc1cc(F)c(O)c(C)c1-n1c(N)c(C(N)=O)c2cc(C(F)(F)F)cnc21 (atropisomer, axis not shown) [Example 154.2]
reported_property: IC50
val: 5.1
--
compound: Cc1cc(F)c(O)c(C)c1-n1c(N)c(C(N)=O)c2cc(C3CCOCC3)c(C)nc21 (atropisomer, axis not shown) [Example 163.1]
reported_property: IC50
val: 5.7
